As shown below, each of these binders has a reported EMax, OVCAR 5 cells (cAMP) value.
Biological target: T1, RXFP1 receptor (endogenous, on OVCAR5 cells) (UniProt Q9HBX9 1-757, limits assumed)
T1 sequence (looked up): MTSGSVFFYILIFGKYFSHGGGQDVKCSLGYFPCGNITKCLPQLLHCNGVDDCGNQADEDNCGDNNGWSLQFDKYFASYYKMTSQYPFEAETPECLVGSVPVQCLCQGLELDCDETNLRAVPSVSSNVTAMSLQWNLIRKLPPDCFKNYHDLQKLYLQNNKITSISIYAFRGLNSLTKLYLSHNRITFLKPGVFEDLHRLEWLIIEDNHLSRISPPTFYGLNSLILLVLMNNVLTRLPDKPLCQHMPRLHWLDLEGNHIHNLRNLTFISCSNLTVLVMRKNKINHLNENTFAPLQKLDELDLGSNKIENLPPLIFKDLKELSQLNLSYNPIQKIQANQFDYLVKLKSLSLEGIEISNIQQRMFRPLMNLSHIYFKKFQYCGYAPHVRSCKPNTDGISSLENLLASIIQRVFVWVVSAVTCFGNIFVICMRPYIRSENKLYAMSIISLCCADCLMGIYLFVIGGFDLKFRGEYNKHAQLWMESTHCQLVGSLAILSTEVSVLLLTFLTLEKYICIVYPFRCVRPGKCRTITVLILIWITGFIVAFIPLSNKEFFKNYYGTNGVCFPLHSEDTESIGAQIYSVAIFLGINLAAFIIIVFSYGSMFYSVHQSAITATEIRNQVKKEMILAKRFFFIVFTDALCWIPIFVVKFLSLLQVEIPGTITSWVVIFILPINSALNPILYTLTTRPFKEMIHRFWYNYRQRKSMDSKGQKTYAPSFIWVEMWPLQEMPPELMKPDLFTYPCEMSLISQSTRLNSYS
Test: cell-based or functional assay
Starred links: 1 amine or outer side, 2 acyl side, 3 side chain; linkers in the order of their positions; H or OH if unused. Non-standard residues stand in square brackets, D forms with d. Groups on a side chain read outwards from the residue. *: point of attachment. TTDS = 4-[3-[2-[2-(3-aminopropoxy)ethoxy]ethoxy]propylamino]-4-oxo-butanoyl; γGlu = O=C(O)[C@H](CCC(=O)[*:2])N[*:1]; Palmitoyl = CCCCCCCCCCCCCCCC(=O)*; Aib = CC(C)(N)C(=O)O

{"binder": "Ac-LEGREKVRAK(Ac)I[Aib][Aib]EGK([TTDS-TTDS-TTDS-γGlu-γGlu-γGlu-Palmitoyl])SKWS[Aib]RAK-NH2 [peptide of SEQ ID NO: 73]", "unit-of-measure": "%", "EMax, OVCAR 5 cells (cAMP)": 95}
{"binder": "Ac-LEGRERVRAK(Ac)I[Aib][Aib]EGK([TTDS-TTDS-TTDS-γGlu-γGlu-γGlu-Palmitoyl])STFS[Aib]RRK(Ac)-NH2 [peptide of SEQ ID NO: 76]", "unit-of-measure": "%", "EMax, OVCAR 5 cells (cAMP)": 96}
{"binder": "Ac-LEGREKVRAK(Ac)I[Aib][Aib]EGK([TTDS-TTDS-TTDS-γGlu-γGlu-γGlu-Palmitoyl])SKFS[Aib]RKK(Ac)-NH2 [peptide of SEQ ID NO: 79]", "unit-of-measure": "%", "EMax, OVCAR 5 cells (cAMP)": 95}
{"binder": "Ac-LEGREKVRAK(Ac)I[Aib][Aib]EGK([TTDS-TTDS-TTDS-γGlu-γGlu-γGlu-Palmitoyl])SQWS[Aib]RKK(Ac)-NH2 [peptide of SEQ ID NO: 63]", "unit-of-measure": "%", "EMax, OVCAR 5 cells (cAMP)": 97}
